Just for reference, PubChem BioAssay (NCI) is where these values come from.

For each of the compounds below, state its TGI.
Test system: NCI-H23 lung
Assay: NCI tumour cell line growth inhibition, 48 h
Numbers only, in µM.

For orientation, consider the following solved cases.
COC(=O)c1ccc2c(c1)c1c(C)c3cnccc3c(C)c1n2C
0.328
Nc1cc(CO)cc(Nc2c3ccccc3nc3occc23)c1
71.7

Tested system NCI-H23 lung; TGI recorded for `CN(C)CN1C(=O)S/C(=C2\C(=O)N(CN(C)C)c3ccccc32)C1=O` was 49.2

====

Exercise: for every item that follows, state its recorded GI50.
Test system: UACC-62 melanoma

Observe how each entry below is paired with its result.
O=C(/C=C/c1ccc([N+](=O)[O-])o1)NNC(=O)c1cc2ccccc2cc1O
694 nM
CCc1ccc(C2=C(O)C(=O)C(c3ccc(CC)cc3)=C(O)C2=O)cc1
1640 nM
Cc1cc(O)cc(C)c1/C=C/c1cncc(C(=O)N(C)C)c1
> 25000 nM
O=C(Nc1ccc(Br)cc1)c1cc(Br)cc(Br)c1O
2560 nM
C=C1C(O)C2C(=C(CC(C)C)C13CC3)C(=O)C(C)(C)C2OC (stereo not given)
> 100000 nM
C=C(CNCCO)[C@@H]1CC[C@]2(CO)CC[C@]3(C)[C@H](CC[C@@H]4[C@@]5(C)CCC(NCCc6ccc(O)cc6)C(C)(C)[C@@H]5CC[C@]43C)[C@@H]12 (stereo not given in full)
1750 nM
[Cl][Sn]([c]1ccccc1)[c]1ccccc1
3220 nM
Nc1ccc2c(c1)[O][Sn]([c]1ccccc1)([c]1ccccc1)[O]C2=O
5940 nM

Give GI50 for all compounds that follow.
1. O=C1NC(=O)C(c2ccccc2Cl)=C1Nc1cccc(O)c1
2. CCN(CC)C(=S)SSC1CCCCC1

Reply |
2250 nM
18000 nM

====

Tested on: SW-620 colon
Assay: NCI tumour cell line growth inhibition, 48 h
Experimental endpoint: TGI (µM)
One number for each entry, in µM.

Previously resolved entries follow.
COC(=O)C(Cc1ccccc1)NC(=O)CNC(=O)CSc1nnc(COc2ccc(Cl)cc2)n1-c1ccccc1 (stereo unspecified)
47
OC1CCC(Oc2cccc3cnc(Nc4ccc5nc[nH]c5c4)nc23)CC1 (stereo unspecified)
16.5

Provide TGI values for the following items, in order.
1. CCCN(CCC)c1c([N+](=O)[O-])cc(S(N)(=O)=O)cc1[N+](=O)[O-]
2. O=[N+]([O-])/C=C\c1ccc2c(c1)OCO2
3. COC(=O)/C=C1/OC(c2ccccc2)=C(Cl)C1=O

Reply |
[36, 4.91, 41.6]

====

Tested on: SF-295 CNS
Use one of these outcomes when replying: active, inactive

Consider the following illustrative entries.
O=C(Nc1ccc(Br)cc1)c1cc(Br)cc(Br)c1O
inactive
O=C(N/N=C/c1ccc(F)cc1)c1[nH]c2ccc(I)cc2c1-c1ccccc1
active
CCOC(=O)/C(C1=CC(=O)C(=O)c2ccccc21)=C(/C)NCc1ccccc1
inactive

Ask | Fill in: this test's call for `Cc1ccc(-c2cc3nc(-c4ccccc4)nc(C(Cl)Cl)n3n2)cc1` is ___
Reply | inactive

Ask | Record request — test call for OCC1OC(N2C=C(c3nc4ccccc4s3)C3C=CC=CC32)C(O)C1O (centres undefined)
Reply | inactive

Ask | Hello, I am checking results. What call was entered for `CC/C=C\C[C@H](O)C/C=C1/C(=O)C=C[C@@H]1C/C=C\CCCC(N)=O` ?
Reply | inactive

Ask | State the result this test recorded for `O=C(/C=C/c1ccc([N+](=O)[O-])o1)NNC(=O)c1cc2ccccc2cc1O` .
Reply | inactive

Ask | What is the recorded call for this molecule in the test? `CC(C)(C)C([O-])=C1C(=O)c2ccccc2C1=O.CC(C)(C)C([O-])=C1C(=O)c2ccccc2C1=O.CC[O-].CC[O-].[Ti+4]`
Reply | inactive

Ask | So what was the verdict on COC1C(O)=C2C(=O)OC(C)(O)/C=C/C=C\C=C/C=C/C(c3ccccc3)NC(=O)/C=C/C=C/C=C/C=C/C2(C)C1O (centres undefined) in this test?
Reply | active

====

System: PC-3 prostate
Test: NCI tumour cell line growth inhibition, 48 h
Assign TGI to each entry below.

CC1(C)C2CCC1C(=O)C(C=O)C2 (stereo unspecified)
> 100 µM

Give me TGI for each of these compounds, listed below.
1. OC1CN=C2c3ccccc3C(O)(c3ccc(Cl)cc3)N2C1 (stereo unspecified)
2. O=C(O)C(Cc1ccc(O)c([N+](=O)[O-])c1)N1C(=O)c2ccccc2C1=O (stereo unspecified)
3. Cc1ccc(-c2cc3nc(-c4ccccc4)nc(C(Cl)Cl)n3n2)cc1
4. Cc1ccc2[nH]c(=O)c(-c3cnc(=O)[nH]n3)c(O)c2c1

Reply |
["> 100 µM", "> 100 µM", "2.05 µM", "> 100 µM"]

====

Tested on: RXF 393 renal
Output constraint: value belongs to class 1 (active), class 0 (inactive)

[Cl][Sn]([c]1ccccc1)[c]1ccccc1
class 0
CN(C)CCNc1cccc2sc3ccc(O)cc3c(=O)c12
class 0
CC1(C)C(=O)/C(=C\c2ccco2)C[C@]2(C)[C@H]3CC=C4[C@@H]5C[C@](C)(C(=O)O)CC[C@]5(C)CC[C@@]4(C)[C@]3(C)CC[C@@H]12
class 0

Could you now consider this next molecule?
Ask | How did this test come out for `Cn1cnc([N+](=O)[O-])c1Sc1ncnc2nc[nH]c12` ?
Reply | class 0

====

Test system: PC-3 prostate
Experiment: NCI tumour cell line growth inhibition, 48 h
Where a SMILES comes first, the peptide text is derived from it. The star is where a group is joined. Boc = CC(C)(C)OC(=O)*
Record form. Attribute: TGI. Fill in for each entry.

Below are worked cases with known answers.
CC(=O)C(=C(I)I)c1ccccc1
83.8 µM
O=S1(=O)c2ccccc2N2CCCc3cc(Cl)cc1c32
> 100 µM
COc1cccc(C2c3cc4c(cc3OC(N3CCOCC3)C2C)OCO4)c1O (stereo unspecified)
> 58.6 µM
OCCCNCc1ccccn1
> 100 µM

Please report TGI for every entry that follows.
1. O=C1/C(=C\c2cccs2)Oc2ccccc21
2. CC(NC(=O)C(NC(=O)OC(C)(C)C)C(C)C)C(=O)NCC(=O)O (stereo not drawn) (Boc-Val-Ala-Gly-OH; configuration not given here)
3. COc1ccc(N=Cc2ccc(N(CCC#N)CCC#N)cc2)cc1

Reply |
["> 100 µM", "> 100 µM", "> 100 µM"]

====

Test system: HL-60(TB) leukemia
Assay: NCI tumour cell line growth inhibition, 48 h
Experimental endpoint: TGI (µM)
Give bare numbers, in µM.

Answered cases to consult:
C=C1CCCCCCCCCCC1S(=O)c1ccccc1 (configuration not stated)
39.2
O=C(c1cccs1)N(C(=O)N1CCC(c2ccccc2)CC1)c1ccccc1
91.2

Could you now look at the following molecule, please?
Form field, TGI with HL-60(TB) leukemia, item `Cc1ccc(-c2cc3nc(-c4ccccc4)nc(C(Cl)Cl)n3n2)cc1` : 4.06

====

These compounds were tested on LOX IMVI melanoma; GI50 is the recorded read-out.

Each of the following entries comes with a recorded value; kindly state GI50 for each.
1. COC(=O)c1ccc2c(c1)c1c(C)c3cnccc3c(C)c1n2C
2. N#CC1C(N)=NNC1c1ccc(-c2ccc(-c3nc4ccccc4o3)cc2)o1 (stereo not drawn)
3. Cn1nnnc1[N-]Cc1ccccc1.[Au+].c1ccc([PH+](c2ccccc2)c2ccccc2)cc1
4. CCC(=O)N1C/C(=C/c2ccc(OC)cc2)C(=O)/C(=C/c2ccc(OC)cc2)C1
5. COc1ccc(-c2cn3ccnc3c(-c3ccc4ncn(C5CCCCC5)c4c3)n2)cc1
6. NC(N)=N/N=C/c1c(-c2cc(Cl)sc2Cl)nc2n1CCS2

Reply |
0.0391 µM
23.3 µM
2.53 µM
0.95 µM
0.74 µM
8.33 µM

I'm hoping you can list GI50 for every compound here, please.
1. O=C1NC(=O)C(c2ccccc2Cl)=C1Nc1cccc(O)c1
2. OCC1OC(N2C=C(c3nc4ccccc4s3)C3C=CC=CC32)C(O)C1O (stereo not drawn)

Reply |
["15.1 µM", "7.1 µM"]

====

What TGI was measured for each of the following?
Test system: ACHN renal
Assay: NCI tumour cell line growth inhibition, 48 h

O=C(O)c1nnsc1COCc1ccccc1
> 100 µM
COC1CCC(OC2CC(C3(C)CCC4(CC(O)C(C)C(C(C)/C=C(\C)C(=O)C(C)CC(C)C(=O)O)O4)O3)OC3(OC(C4OC(O)(CO)C(C)CC4C)CC3C)C2C)OC1C (centres undefined)
4.9 µM
CC(C)(C)N=CN1CCC(C(c2ccccc2)c2ccccc2)CC1
> 100 µM
Cc1cc2ccccc2c[n+]1CC(=O)CC([O-])(C(F)(F)F)C(F)(F)F
> 100 µM
O=[N+]([O-])C(=C(NCc1ccccc1)NCc1ccccc1)C(Cl)=C(Cl)Cl
55.9 µM
CSc1n[n+](C)cc(N)c1N
> 100 µM
CC[C@H]1C=CCC[C@@]2(C[C@@H]3CC[C@@H]4[C@H](C(=O)OCCCCCCCCCCCCCCCC(=O)N(CCCN)C[C@@H](O)CCN)[C@]5(CCC[C@@H](C)O5)NC(=[N+]34)N2)O1
> 4.73 µM
Cc1nn(-c2ccccc2)c(C)c1/C=N/NC(=O)c1sc(=S)n(-c2ccccc2)c1N
4.32 µM
CCc1cccc(C)c1NC(=O)CC1Sc2ccccc2NC1=O (centres undefined)
> 100 µM
CCN(CC)C(=S)SSC1CCCCC1
32 µM

List reported TGI for each of these compounds:
1. NC(=O)c1ccccc1NC(=O)C(=O)C(c1cnc2ccc([N+](=O)[O-])cc2n1)[N+](=O)[O-] (centres undefined)
2. COc1cc2ccc3c4cc(OC)c(OCc5ccccc5)cc4cnc3c2cc1OC
3. CC1(C)N=C(N)N=C(N)N1c1cccc(CSc2ccccc2)c1

Reply |
> 100 µM
> 100 µM
> 100 µM

Each compound below has a recorded value; state its TGI.
1. COc1cccc(C2c3cc4c(cc3OC(N3CCOCC3)C2C)OCO4)c1O (centres undefined)
2. CC1(C)C(=O)/C(=C\c2ccco2)C[C@]2(C)[C@H]3CC=C4[C@@H]5C[C@](C)(C(=O)O)CC[C@]5(C)CC[C@@]4(C)[C@]3(C)CC[C@@H]12

Reply |
["72 µM", "21.1 µM"]

Batch lookup, TGI per entry.
1. CCCc1ccc(N=Cc2cc(OC)c(OC)c(OC)c2)cc1
2. C=C1C(O)C2C(=C(CC(C)C)C13CC3)C(=O)C(C)(C)C2OC (centres undefined)

Reply |
["> 100 µM", "> 100 µM"]

Lab note: each compound below needs its TGI filled in.
1. COc1ccc(CNc2nc3ccccc3nc2-c2cccs2)cc1
2. CCCCCCCCCC[C@@H](O)[C@@H]1CC[C@@H]([C@@H]2CC[C@@H]([C@@H](O)CCCCCCCCCCC(O)CC3=CC(C)OC3=O)O2)O1 (some centres undefined)

Reply |
1. > 100 µM
2. > 10 µM
